Task for the reader: assign each of the following molecules its reported melting point.

Please look at the items below and tell me melting point for each one, in order.
1. OCC#Cc1ccccn1
2. COc1cccc(C=CC2=NN(C(C)=O)C(C)Cc3cc4c(cc32)OCO4)c1OC (stereo not given)
3. CCCc1nc2c(N)nc3cc(-c4ccccc4)ccc3c2n1CCCON=C(C)C

(A)
1: 78 to 80 °C; 2: 125 to 128 °C; 3: 164 to 165 °C

For every item in the list below, what is its measured melting point?
1. CNc1cc(NS(=O)(=O)c2ccc(C)cc2)nc(NC)n1
2. O=C1N(Cc2ccc(Cl)s2)c2ccccc2C12COc1ccc(OCc3ccccc3)cc12 (stereo not given)
3. CCC1(CBr)Cc2cc(OC)c3c(c2C(c2ccccc2)=N1)CC(CC)(CC)O3 (stereo not given)
4. CCCCN(C(C)=O)C1NC(=O)N(c2cccc(C(F)(F)F)c2)C(=O)N1
5. COC(=O)c1ccc(S(C)(=O)=O)c(C(=O)NC(C)(C)CO)c1Cl
6. O=C(c1ccccc1)c1ccc2nc(CS(=O)c3ccccn3)[nH]c2c1 (stereo not given)
7. NC(Cc1c[nH]c2ccccc12)C(=O)Nc1c(F)cc(F)cc1F (stereo not given)
8. CN(C)c1ccc(C(=O)c2cccc(N)c2)cc1

(A)
270 to 272 °C
132 to 135 °C
108 to 110 °C
146 to 148 °C
70 to 72 °C
142 to 145 °C
45 to 55 °C
110 °C

====

metric-name: melting point

> print(dat)
                                   compound  experimental.result
1  Fc1ccc(C2(Cn3ncnc3S)OC2c2ccccc2Cl)cc1 (stereo not given)        179 to 180 °C
2  COc1cc2c(c3c1OC(C)(C)C3)C(c1cccc(NC(=O)Nc3ccccn3)c1)=NC(C)(C)C2        189 to 191 °C
3     COc1ccc(C(=O)c2cc3cc(OC)ccc3[nH]2)cc1        155 to 158 °C
4    O=c1c(N2CCNCC2)nc2ccccc2n1-c1cccc(F)c1        149 to 150 °C
5          Cn1nc(-c2ccccc2Cl)nc1-c1ccccc1Cl          82 to 85 °C
6  Cc1ccc(S(=O)(=O)n2cc(F)c(=O)[nH]c2=O)cc1        241 to 242 °C
7  COC(=O)c1cc(C(=O)NNC(=O)c2ccccn2)c2cc(Cc3ccc(F)cc3)cnc2c1O        164 to 166 °C
8  CC(=O)N1CCS(=O)c2ccccc2C1 (stereo not given)        156 to 157 °C
9  CC(=O)NC12CC1CN(c1nc3c(cc1F)c(=O)c(C(=O)O)cn3C1CC1)C2 (stereo not given)               275 °C

Turning now to a further compound:
(Q) Recorded melting point of Cc1ccc(S(=O)(=O)Cc2c(-c3ccc(Cl)cc3Cl)nn(C)c2O)cc1 , please.
(A) 209 °C

====

Field: melting point. Provide a value for each of the molecules that follow.

// known answers, use as guide
> print(dat)
                                   molecule    metric.name  experimental.result
1  CC(C)=CCc1c(O)ccc(C(=O)C=Cc2ccc(O)cc2)c1O  melting point          75 to 76 °C
2                             Nc1onc2c1CCC2  melting point               135 °C

Report melting point for each item below.
1. CCn1c2cccc(C=O)c2c2c3ccccc3ccc21
2. CCCc1nc2c(N)nc(C)c(C)c2n1CCCC(=O)N1CCOCC1
3. C(=C\c1ncno1)/c1ccccc1
4. CCOc1ccc2c(c1)CCC(Oc1ncnc3ccccc13)C2 (configuration not stated)
5. CC(C)(C)OC(=O)N[C@@H](C(=O)N1CCC[C@H]1C(=O)NC1CCc2n[nH]cc2C1)C(c1ccccc1)c1ccccc1 (some centres not stated)

(A)
90.5 to 91.5 °C
164 to 165 °C
53 to 55 °C
115 to 117 °C
119 to 122 °C

Here are 8 molecules. What values of melting point were reported for them?
1. c1ccc(NC2(c3ccccc3)N=C(c3ccccc3)N=C2c2ccccc2)cc1 (configuration not stated)
2. C#CC12CC3CC(C1)CC(C#C)(C3)C2
3. Cc1ccc(=O)n(-c2cccc(C(F)(F)F)c2)c1
4. Cc1nc(C(=O)NCCO[N+](=O)[O-])cs1
5. O=C(c1ccc2c(c1)Cc1ccccc1-2)N1Cc2cccn2Cc2ccccc21
6. CCNc1cccc(-c2ccnc3c(C(=O)c4ccccc4)cnn23)c1
7. CC(C)(C)[Si](C)(C)OC1CN(c2ccc(N3C[C@H](CN=[N+]=[N-])OC3=O)cc2F)C1
8. CCCCCCCCC(CCC(=O)O)(CCC(=O)O)C(C)=O

(A)
1. 157 °C
2. 46 °C
3. 95 °C
4. 78 to 79 °C
5. 202 to 204 °C
6. 98 to 99 °C
7. 121 to 122 °C
8. 69 to 71 °C

Need melting point for each of these molecules.
1. CCN(CC)CCc1c(C)[nH]c(C=C2C(=O)[NH+]([O-])N=C2c2cnccn2)c1C (configuration not stated)
2. CNc1ccc(C(=N)NC(=O)OCc2ccccc2)c(F)c1
3. CCOC1=C(C)C(=O)C(C)(C)CC1
4. CNc1ccc2n[nH]c(=O)n2n1
5. CC(NC(=O)c1ccc([N+](=O)[O-])cc1)C(=O)O (configuration not stated)

(A)
["192 °C", "128 to 130 °C", "104 to 106 °C", "> 348 °C", "199 to 200 °C"]

====

So I've got a bunch of compounds here, and I need their melting point values.

In the examples that follow, each entry is paired with its recorded melting point.
> print(dat)
                                   compound  experimental.result
1      Cc1cc(C2=C(c3cc(C)sc3C)CCC=C2)c(C)s1          55 to 57 °C
2  CCS(=O)(=O)Nc1ccc([N+](=O)[O-])cc1OC1CCCCC1          94 to 95 °C
3  COCOc1ccc(OC(C)C(=O)Nc2ccc(OC(F)(F)F)cc2)cc1 (stereo not given)        115 to 116 °C
4  CN(C)OCc1nnc2n1-c1ccc(Cl)cc1C(c1ccccc1)=NC2               174 °C
5  O=C(Nc1cccc(S(=O)(=O)NC2CC2)c1)c1cnn2c(C(F)(F)F)cc(-c3ccc(Cl)cc3)nc12               257 °C

Record melting point for all entries; do not skip any.
1. Cc1c(C)c2c(c(C)c1OCc1ccncc1)C(c1ccc(C(C)C)cc1)C1(CCN(C)CC1)O2 (stereo not given)
2. CCOc1ccc(C2(C(=O)O)CCC2)cc1
3. CC(C)n1c(Cl)nc2ccccc21
4. C=CCNc1c(C(=O)O)cnc2cn[nH]c12
5. CC(=O)Oc1ccc(-c2cnc(N)c(Cc3ccccc3)n2)cc1

(A)
["96 to 98 °C", "90 to 91 °C", "58 to 60 °C", "240 to 242 °C", "184 to 186 °C"]

====

Assignment: determine reported melting point for the given compounds.

Consider the reported melting point for these compounds:
> print(dat)
                                   compound    metric.name  experimental.result
1  CN(C)CCNC(=O)Cn1c(-c2ccc(Br)cc2)nc2cccnc21  melting point        195 to 197 °C
2            COc1ccc(C)c2nc(Cl)c(C(C)C)cc12  melting point          74 to 76 °C
3    O=c1[nH][nH]c(C(F)(F)F)c1Cc1ccc(Br)cc1  melting point        135 to 136 °C
4  CC(C)CN1CCCC1CNC(=O)c1cc(S(N)(=O)=O)cc2c1OC(C)C2 (stereo unspecified)  melting point        182 to 184 °C
5                    COC(=S)c1cc(N)cc(N)c1C  melting point        102 to 104 °C
6  O=C(O)CCC(O)c1ccc(-c2ccc(Cl)cc2)cc1 (stereo unspecified)  melting point        134 to 135 °C

Give melting point for each listed item.
1. CC(C)(C)NCC(O)COc1ccc(-c2nc(C(F)(F)F)c[nH]2)cc1 (stereo unspecified)
2. CCSc1ccc2c(c1)C(Cl)Cc1ccc(F)cc1S2 (stereo unspecified)
3. N#Cc1ccc2c(C#N)c3cc(C#N)ccc3c(C#N)c2c1
4. CC(C)c1cccc(C(C)C)c1NC(=O)NCC1(c2ccccc2)CCCCC1
5. COc1cc(CNC(=O)c2oc(=O)c3ncccc3c2-c2ccc(C)cc2)cc(OC)c1
6. O=C1NC(=O)C(CCCc2ccc3oc(Cc4ccc5ccccc5c4)nc3c2)O1 (stereo unspecified)

(A)
1. 186 °C
2. 99 °C
3. 345 °C
4. 168 to 169 °C
5. 154 to 155 °C
6. 151 to 152 °C

Kindly give each listed record's melting point.
1. CCCCCCCCCCCCCCCCC(O)CBr (stereo unspecified)
2. CCCCNC(=O)CC(=O)Nc1ccc(Br)cc1C
3. CCCCOCCCCCCCCCCC(=O)O
4. CC1(c2ccccc2)OC(=O)C(=O)CC1=O (stereo unspecified)
5. CCN(C(=O)C(C)CSC(c1ccccc1)(c1ccccc1)c1ccccc1)c1cn(-c2cccnc2)nc1Cl (stereo unspecified)
6. CO/C=C(/C(=O)OC)c1cccnc1Oc1cccc(C=O)c1

(A)
["53.5 to 54.5 °C", "123 to 125 °C", "29 to 30.5 °C", "142 to 144 °C", "64 to 66 °C", "84 to 86 °C"]

Recorded values, source a melting point compilation (Tetko et al.; mined from patent text by program, amines drawn as free bases though some values may be those of a salt).
